Cited source: PubChem BioAssay (NCI)

ASSAY_REMARKS: NCI Yeast Anticancer Drug Screen. Data for the bub3 strain (AID 167)
STUDY_CONDITIONS: S. cerevisiae bub3 mutant strain, at 11.0 µM, active compounds read high
About 79,000 compounds went through this panel and 15% of them were active in at least one assay; those are over-represented in the sample as a whole.
Tag: fulfilled if measured growth inhibition is not below 20%, not fulfilled if it is.

Please indicate if the recorded growth inhibition for "O=C(N/N=C\c1c(Cl)cccc1Cl)N/N=C/c1c(Cl)cccc1Cl" meets or exceeds 20%. not fulfilled

Textbook exercise: given the entry "[N-]=[N+]=NC(c1ccccc1)(c1ccccc1)c1ccccc1" , state whether its growth inhibition is greater than or equal to 20%. not fulfilled

Kindly determine if growth inhibition recorded for "Cc1cccc(/C=N\NC(=S)N2CCCCC2)n1" is above or exactly 20%. fulfilled

Would you say "NNC(=S)Nc1cccc(Cl)c1" shows growth inhibition at minimum 20%? not fulfilled

Does growth inhibition meet or surpass 20% for NP1(Oc2ccc(F)cc2)=NP(N)(Oc2ccc(F)cc2)=NP(Oc2ccc(F)cc2)(Oc2ccc(F)cc2)=N1 (stereo unspecified) ? fulfilled

Item CC(=O)OCC1OC(O[C@H]2C=C[C@@H](C(=O)OCc3ccccc3)n3c(=O)n(-c4ccccc4)c(=O)n32)C(OC(C)=O)C(OC(C)=O)C1OC(C)=O (stereo partly specified) with growth inhibition of 20% or above? not fulfilled

Does the reported growth inhibition for "c1ccc2c(c1)ccc1c3ccncc3ccc21" fall at or above the 20% mark? fulfilled

Given the entry "CCNc1ccc2c(c1)C(=O)N(OS(C)(=O)=O)C2=O" , answer whether its growth inhibition meets or surpasses 20%. not fulfilled

Is the recorded value of growth inhibition equal to or greater than 20% for this molecule? "BrCc1ccccc1C(c1ccccc1)c1ccccc1" fulfilled

Is growth inhibition at least 20%? Consider "O=[N+]([O-])c1c(/C=N/Nc2ccccc2)oc(-c2ccc3c(c2)OCO3)c1-c1ccc2c(c1)OCO2" not fulfilled
